test system: KM12 colon; assay: NCI tumour cell line growth inhibition, 48 h; in the data active = GI50 below about 0.43 µM; inactive = the rest
// one of active, inactive, no free text

[ask] For CC(C)(C)C[C@H]1NC(C(=O)NCC[C@H](O)CO)[C@H](c2cccc(Cl)c2)[C@@]12C(=O)Nc1cc(Cl)c(F)cc12 (stereo not given in full) , which call appears in the assay record?
[reply] inactive

[ask] For Cc1[c-]onc1C.Cc1[c-]onc1C.[Ag].[Ag].[NH-]S(=O)(=O)c1ccc(N=Nc2cc(N=Nc3ccc(S([NH-])(=O)=O)cc3)c3c(NC(=O)C(Cl)Cl)cccc3c2OC(=O)C(Cl)Cl)cc1 , which call appears in the assay record?
[reply] inactive

###

test system: MDA-MB-435; test: NCI tumour cell line growth inhibition, 48 h
observable: TGI (µM)
State just the number; it will be interpreted in µM.

Record C=C1[C@@H](O)C[C@@]23CC[C@@H]4[C@@]5(C)CC[C@@H](OC(C)=O)C(C)(C)[C@@H]5C[C@@H](OC5OC(COC(C)=O)C(O)C(O)C5O)[C@@]4(C)C2=CC[C@H]3[C@H]1C (some centres undefined) has MDA-MB-435 TGI equal to 15.3

Record CC/C=C\C=C/C(=O)N/C=C/CC1Cc2cccc(O)c2C(=O)O1 (centres undefined) has MDA-MB-435 TGI equal to 10.7

Record CCN1C(=O)N(CC)C2C1NN=c1s/c(=C\c3cccnc3)c(=O)n12 (centres undefined) has MDA-MB-435 TGI equal to 0.527

Record Nc1nn2c(C(Br)Br)cc(C(Br)Br)nc2c1[N+](=O)[O-] has MDA-MB-435 TGI equal to 1.76

Record CC(C)(C)C[C@H]1NC(C(=O)NCC[C@H](O)CO)[C@H](c2cccc(Cl)c2)[C@@]12C(=O)Nc1cc(Cl)c(F)cc12 (some centres undefined) has MDA-MB-435 TGI equal to 29.6

New cases:
Record C[n+]1c(-c2ccccc2)cc2/c(=C\c3ccc([N+](=O)[O-])cc3)c3ccccc3n21 has MDA-MB-435 TGI equal to 14.4

Record ClCCn1c(CCl)nc2ccc(Cl)cc21 has MDA-MB-435 TGI equal to 2.12

###

tested on: NCI-H460 lung; experiment: NCI tumour cell line growth inhibition, 48 h
observable: TGI

The cases that follow already have their TGI on record.
Record CC(C)(C)OC(=O)C#CC[C@H]1CCCC1/C=C/C(O)=C1/C(=O)NC(CCCNC(=O)OC(C)(C)C)C1=O (stereo partly drawn) has NCI-H460 lung TGI equal to 61.6 µM

Record C[C@H](Nc1ncnc2nc[nH]c12)c1cc2cccc(Cl)c2c(=O)n1-c1ccccc1 has NCI-H460 lung TGI equal to > 100 µM

Record Cc1cc(C)c2c(=O)n(CN3CC4Nc5ccccc5C4C3)sc2n1 (stereo not drawn) has NCI-H460 lung TGI equal to 46.2 µM

Record CC1(C)O[C@@H]2COC(=O)[C@@H]2O1 has NCI-H460 lung TGI equal to > 100 µM

Record C=C1[C@@H](O)C[C@@]23CC[C@@H]4[C@@]5(C)CC[C@@H](OC(C)=O)C(C)(C)[C@@H]5C[C@@H](OC5OC(COC(C)=O)C(O)C(O)C5O)[C@@]4(C)C2=CC[C@H]3[C@H]1C (stereo partly drawn) has NCI-H460 lung TGI equal to 17.2 µM

Record CCCCN1CCN(c2ccc3nc(-c4ccc5nc(-c6ccc(C(F)(F)F)cc6)[nH]c5c4)[nH]c3c2)CC1 has NCI-H460 lung TGI equal to 1.33 µM

Record COC(=O)[C@]12CC[C@@H](C)[C@H](C)[C@@H]1C1=CC[C@@H]3[C@@]4(C)C[C@@H](OC(C)=O)[C@H](O)[C@@](C)(COC(C)=O)[C@@H]4[C@H](O)C[C@@]3(C)[C@]1(C)CC2 has NCI-H460 lung TGI equal to 4.02 µM

Record COC(=O)CCC(NC(=S)N/N=C(\C)c1nccs1)C(=O)OC (stereo not drawn) has NCI-H460 lung TGI equal to > 100 µM

New cases:
Record C1CCSCCCCSCCCCSCCCCSC1 has NCI-H460 lung TGI equal to > 100 µM

Record c1cc(-c2cn3ccsc3n2)ccn1 has NCI-H460 lung TGI equal to > 100 µM

Record CC/C=C\C=C/C(=O)N/C=C/CC1Cc2cccc(O)c2C(=O)O1 (stereo not drawn) has NCI-H460 lung TGI equal to 62.1 µM

Record COc1ccc(Nc2nc3ccc(C(F)(F)F)cc3nc2C(=O)O)cc1OC has NCI-H460 lung TGI equal to 54.6 µM

Record COc1ccc2c(c1)O/C(=C\c1cccc(OCC(=O)Nc3nc4c(s3)CCCC4)c1)C2=O has NCI-H460 lung TGI equal to > 100 µM

Record Cc1ccc(C(=O)O/N=C2/CCC/C2=C\c2ccccc2)cc1 has NCI-H460 lung TGI equal to > 100 µM

Record O=c1c2ncn(C3CC(O)C(CO)O3)c2nnn1Cc1ccccc1[N+](=O)[O-] (stereo not drawn) has NCI-H460 lung TGI equal to > 100 µM

Record C=C(C)CCC(=O)[C@](C)(O)[C@H]1[C@H](O)C[C@@]2(C)[C@@H]3CCc4c(cc(OC5OC(CO)C(O)C(O)C5O)c(O)c4C)C3(C)C(=O)C[C@]12C (stereo partly drawn) has NCI-H460 lung TGI equal to > 100 µM

Record Cc1ccc(S(=O)(=O)Oc2cc(N)c3c(n2)CCC3)cc1 has NCI-H460 lung TGI equal to > 100 µM

Record CC(=O)NNc1nc(C)c(C(=O)NNC(=O)C(=O)Nc2ccccc2C#N)s1 has NCI-H460 lung TGI equal to > 100 µM

###

system: HS 578T breast; test: NCI tumour cell line growth inhibition, 48 h; in the data active = GI50 below about 0.43 µM; inactive = the rest
// one of t for active, f for inactive, no free text

[ask] For Cc1ccc2c(ccc3c[n+]4c5ccccc5ccc4n32)c1 , which call appears in the assay record?
[reply] f

[ask] For CCN(CC)S(=O)(=O)c1ccc(OC)c(Nc2ncc(-c3ccccc3)o2)c1 , which call appears in the assay record?
[reply] f

[ask] For CCCCCn1c(=N)n(CC(O)COc2cccc(C)c2)c2ccccc21 (configuration not stated) , which call appears in the assay record?
[reply] f

[ask] For Cc1ccc(/C=C2\CN(C(=O)OC(C)(C)C)C/C(=C\c3ccc(C)cc3)C2=O)cc1 , which call appears in the assay record?
[reply] t

[ask] For O=C1OC(=O)C(c2c[nH]c3ccccc23)=C1c1c[nH]c2ccccc12 , which call appears in the assay record?
[reply] f

[ask] For C=CCc1c2c(c(OC)c3ccoc13)C(=O)/C(=C/c1ccccc1OC)O2 , which call appears in the assay record?
[reply] f

Field: next molecule
[ask] For CNC(=O)n1ccc2cc(Oc3ccnc(NC(=O)c4ccc(C5CCN(CCO)CC5)cc4)c3)c(OCCOC)cc21 , which call appears in the assay record?
[reply] f

###

tested on: EKVX NSCLC; assay: NCI tumour cell line growth inhibition, 48 h
Each entry below carries its reported TGI.

The cases that follow already have their TGI on record.
Record CNC(=O)c1cncc(/C=C/c2ccccc2C)c1 has EKVX NSCLC TGI equal to > 25 µM

Record Nc1ccn(Cc2ccc(C34CC5CC(CC(C5)C3)C4)c(O)c2)c(=O)n1 has EKVX NSCLC TGI equal to > 100 µM

Record CCCCCCCCCC[C@H](O)[C@H]1CC[C@H]([C@H]2CC[C@H]([C@H](O)CC[C@H](O)CCCCCCC[C@@H](O)CC3=C[C@H](C)OC3=O)O2)O1 has EKVX NSCLC TGI equal to > 100 µM

New cases:
Record O=C(Cn1ccc(=O)[nH]c1=O)Nc1ccc(C(=O)O)c(O)c1 has EKVX NSCLC TGI equal to > 100 µM

Record CN(C)NC(=S)Nc1ccccc1Br has EKVX NSCLC TGI equal to > 100 µM

Record CSCCC(NCc1c(O)ccc2c(-c3ccccc3)cc(=O)oc12)C(=O)O (stereo not given) has EKVX NSCLC TGI equal to > 100 µM

Record COc1cccc(/C=C/C(=O)c2cccc(Nc3nc(Nc4ccccc4)nc(Nc4ccccc4)n3)c2)c1 has EKVX NSCLC TGI equal to > 78.6 µM

Record O=c1c2c([nH]c3cc4c(cc13)OCO4)-c1ccccc1CC2 has EKVX NSCLC TGI equal to > 100 µM

Record CNC(=O)n1ccc2cc(Oc3ccnc(NC(=O)c4ccc(C5CCN(CCO)CC5)cc4)c3)c(OCCOC)cc21 has EKVX NSCLC TGI equal to 29.3 µM

Record Cc1cn2c(/C=C3/C(=O)Nc4cccc(Cl)c43)c(Cl)nc2s1 has EKVX NSCLC TGI equal to > 100 µM

###

Each entry below carries its reported GI50.
test system: NCI-H522 lung; assay: NCI tumour cell line growth inhibition, 48 h

The cases that follow already have their GI50 on record.
Record CCN(Cc1ccc(F)c(F)c1)c1ccc(CO)c(Cl)c1 has NCI-H522 lung GI50 equal to 13.2 µM

Record CNC(=O)c1cncc(/C=C/c2ccccc2C)c1 has NCI-H522 lung GI50 equal to > 25 µM

Record Nc1ccn(Cc2ccc(C34CC5CC(CC(C5)C3)C4)c(O)c2)c(=O)n1 has NCI-H522 lung GI50 equal to 40.9 µM

Record COc1cccc(/C=C/C(=O)c2cccc(Nc3nc(Nc4ccccc4)nc(Nc4ccccc4)n3)c2)c1 has NCI-H522 lung GI50 equal to 15.1 µM

Record Oc1ccc(-c2nnc3sc(-c4ccc(F)cc4)nn23)cc1 has NCI-H522 lung GI50 equal to 62 µM

Record CC/C=C\C=C/C(=O)N/C=C/CC1Cc2cccc(O)c2C(=O)O1 (stereo not given) has NCI-H522 lung GI50 equal to 19.5 µM

New cases:
Record COc1ccc(C(=O)/C=C/c2ccc(/C=C/c3cc(OC)c(OC)c(OC)c3)cc2)cc1 has NCI-H522 lung GI50 equal to 3.3 µM

Record CCN1C(=O)N(CC)C2C1NN=c1s/c(=C\c3cccnc3)c(=O)n12 (stereo not given) has NCI-H522 lung GI50 equal to 0.474 µM

Record CCN(CC)S(=O)(=O)c1ccc(OC)c(Nc2ncc(-c3ccccc3)o2)c1 has NCI-H522 lung GI50 equal to > 16.9 µM

Record COc1ccc(-c2ccc(/C=N/n3c(COc4ccc(Cl)cc4Cl)n[nH]c3=S)o2)c([N+](=O)[O-])c1 has NCI-H522 lung GI50 equal to 29.7 µM
